Measured IC50, listed per entry for reference.
testedOn: Cytochrome P450 1A2 (Homo sapiens)
Sequence (P05177 whole entry): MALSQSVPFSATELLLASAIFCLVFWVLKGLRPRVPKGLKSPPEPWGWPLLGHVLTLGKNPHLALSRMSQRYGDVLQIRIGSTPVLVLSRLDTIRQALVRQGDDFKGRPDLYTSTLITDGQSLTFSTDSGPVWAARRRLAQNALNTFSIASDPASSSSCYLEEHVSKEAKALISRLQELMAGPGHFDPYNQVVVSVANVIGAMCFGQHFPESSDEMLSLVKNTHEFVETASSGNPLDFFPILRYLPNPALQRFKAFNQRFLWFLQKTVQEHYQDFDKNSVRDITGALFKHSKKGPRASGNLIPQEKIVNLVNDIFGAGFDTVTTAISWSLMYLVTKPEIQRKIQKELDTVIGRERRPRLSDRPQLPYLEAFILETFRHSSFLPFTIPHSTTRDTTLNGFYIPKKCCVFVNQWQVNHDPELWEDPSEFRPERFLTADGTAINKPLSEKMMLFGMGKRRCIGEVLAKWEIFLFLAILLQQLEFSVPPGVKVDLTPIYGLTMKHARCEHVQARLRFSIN
methodSummary: Inhibition of recombinant human CYP1A2

{"columns": ["compound", "testedOn", "endpointName", "testResult"],
 "data": [
  ["Cn1c(N2CCO[C@@H]3COC[C@H]32)nc(-c2ccncc2F)cc1=O", "Cytochrome P450 1A2 (Homo sapiens)", "IC50", "> 50 µM"],
  ["CC(C)C1CN(c2nc(-c3ccncc3F)cc(=O)n2C)CCO1 (racemic)", "Cytochrome P450 1A2 (Homo sapiens)", "IC50", "3.3 µM"],
  ["C[C@H]1COCCN1c1nc(-c2ccncc2F)cc(=O)n1C", "Cytochrome P450 1A2 (Homo sapiens)", "IC50", "5.7 µM"],
  ["Cn1c(N2CCO[C@@H]3CCCC[C@H]32)nc(-c2ccncc2F)cc1=O", "Cytochrome P450 1A2 (Homo sapiens)", "IC50", "14 µM"],
  ["CCCCC1CN(c2nc(-c3ccncc3F)cc(=O)n2C)CCO1 (racemic)", "Cytochrome P450 1A2 (Homo sapiens)", "IC50", "7.5 µM"]
]}

Field request: IC50 | item: Cn1c(N2CCOC(C3CCC3)C2)nc(-c2ccncc2F)cc1=O (racemic)
1.5 µM

Field request: IC50 | item: Cn1c(N2CCO[C@@H]3CCC[C@H]32)nc(-c2ccncc2F)cc1=O
21 µM

Field request: IC50 | item: C[C@@H]1[C@@H](C)OCCN1c1nc(-c2ccncc2F)cc(=O)n1C
16 µM

Field request: IC50 | item: C[C@@H]1COCCN1c1nc(-c2ccncc2F)cc(=O)n1C
18.7 µM

----------
Measured CLint scaled, listed per entry for reference.
methodSummary: Intrinsic clearance in human liver microsomes
Assay type: ADME
Enter the number, and then the unit.

Illustrative cases are given below, each with its answer.
{"columns": ["compound", "CLint scaled"],
 "data": [
  ["Cn1c(N2CCO[C@@H]3CCCC[C@H]32)nc(-c2ccncc2F)cc1=O", "200 µL/min/mg"],
  ["CC(C)C1CN(c2nc(-c3ccncc3F)cc(=O)n2C)CCO1 (racemic)", "70 µL/min/mg"],
  ["Cn1c(N2CCO[C@@H]3COC[C@H]32)nc(-c2ccncc2F)cc1=O", "20 µL/min/mg"],
  ["Cn1c(N2CCO[C@@H]3CCC[C@H]32)nc(-c2ccncc2F)cc1=O", "40 µL/min/mg"],
  ["C[C@H]1COCCN1c1nc(-c2ccncc2F)cc(=O)n1C", "20 µL/min/mg"],
  ["C[C@@H]1COCCN1c1nc(-c2ccncc2F)cc(=O)n1C", "30 µL/min/mg"],
  ["Cn1c(N2CCO[C@@H](c3ccc(F)cc3)C2)nc(-c2ccncn2)cc1=O", "60 µL/min/mg"],
  ["CCCCC1CN(c2nc(-c3ccncc3F)cc(=O)n2C)CCO1 (racemic)", "210 µL/min/mg"]
]}

Field request: CLint scaled | item: Cn1c(N2CCOC(C3CCC3)C2)nc(-c2ccncc2F)cc1=O (racemic)
200 µL/min/mg

----------
Measured Papp, listed per entry for reference.
methodSummary: Permeability across human Caco2 cells
Format: ADME, cell-based
particulars: Caco-2, read-out: permeability
The figure you give is taken to be in ×10⁻⁶ cm/s; do not add the unit.

Illustrative cases are given below, each with its answer.
{"columns": ["compoundStructureString", "Papp, ×10⁻⁶ cm/s"],
 "data": [
  ["Cn1c(N2CCO[C@@H]3CCC[C@H]32)nc(-c2ccncc2F)cc1=O", 44.5],
  ["Cn1c(N2CCO[C@@H]3COC[C@H]32)nc(-c2ccncc2F)cc1=O", 54.5],
  ["C[C@@H]1COCCN1c1nc(-c2ccncc2F)cc(=O)n1C", 54.6]
]}

Field request: Papp | item: C[C@@H]1[C@@H](C)OCCN1c1nc(-c2ccncc2F)cc(=O)n1C
48.5

Field request: Papp | item: Cn1c(N2CCO[C@@H]3CCCC[C@H]32)nc(-c2ccncc2F)cc1=O
41.8

----------
testedOn: UniProt P10635
Sequence (P10635 whole entry): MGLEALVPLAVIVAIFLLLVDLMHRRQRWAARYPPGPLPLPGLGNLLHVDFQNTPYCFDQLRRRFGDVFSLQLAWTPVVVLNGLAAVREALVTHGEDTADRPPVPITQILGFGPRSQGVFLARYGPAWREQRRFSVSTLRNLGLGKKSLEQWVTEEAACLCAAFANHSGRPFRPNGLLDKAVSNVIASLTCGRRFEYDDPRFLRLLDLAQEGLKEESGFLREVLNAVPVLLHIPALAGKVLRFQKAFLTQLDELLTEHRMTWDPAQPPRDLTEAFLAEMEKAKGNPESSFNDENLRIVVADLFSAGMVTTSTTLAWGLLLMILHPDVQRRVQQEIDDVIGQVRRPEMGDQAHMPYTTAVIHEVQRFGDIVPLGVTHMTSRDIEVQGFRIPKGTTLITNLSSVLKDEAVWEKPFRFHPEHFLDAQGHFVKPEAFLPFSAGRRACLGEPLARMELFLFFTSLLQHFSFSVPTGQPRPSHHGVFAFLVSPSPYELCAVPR
methodSummary: Inhibition of recombinant human CYP2D6
Measured IC50, listed per entry for reference.

Illustrative cases are given below, each with its answer.
{"columns": ["compound", "IC50"],
 "data": [
  ["CC(C)C1CN(c2nc(-c3ccncc3F)cc(=O)n2C)CCO1 (racemic)", "> 50 µM"],
  ["C[C@H]1COCCN1c1nc(-c2ccncc2F)cc(=O)n1C", "> 50 µM"]
]}

Field request: IC50 | item: C[C@@H]1[C@@H](C)OCCN1c1nc(-c2ccncc2F)cc(=O)n1C
> 50 µM

Field request: IC50 | item: Cn1c(N2CCO[C@@H]3CCCC[C@H]32)nc(-c2ccncc2F)cc1=O
> 50 µM

Field request: IC50 | item: Cn1c(N2CCO[C@@H]3COC[C@H]32)nc(-c2ccncc2F)cc1=O
> 50 µM

Field request: IC50 | item: Cn1c(N2CCO[C@@H]3CCC[C@H]32)nc(-c2ccncc2F)cc1=O
> 50 µM

Field request: IC50 | item: CCCCC1CN(c2nc(-c3ccncc3F)cc(=O)n2C)CCO1 (racemic)
2.3 µM

Field request: IC50 | item: C[C@@H]1COCCN1c1nc(-c2ccncc2F)cc(=O)n1C
> 50 µM

Field request: IC50 | item: Cn1c(N2CCOC(C3CCC3)C2)nc(-c2ccncc2F)cc1=O (racemic)
37.7 µM

----------
testedOn: Glycogen synthase kinase-3 beta (Homo sapiens, UniProt P49841)
Sequence (P49841 whole entry): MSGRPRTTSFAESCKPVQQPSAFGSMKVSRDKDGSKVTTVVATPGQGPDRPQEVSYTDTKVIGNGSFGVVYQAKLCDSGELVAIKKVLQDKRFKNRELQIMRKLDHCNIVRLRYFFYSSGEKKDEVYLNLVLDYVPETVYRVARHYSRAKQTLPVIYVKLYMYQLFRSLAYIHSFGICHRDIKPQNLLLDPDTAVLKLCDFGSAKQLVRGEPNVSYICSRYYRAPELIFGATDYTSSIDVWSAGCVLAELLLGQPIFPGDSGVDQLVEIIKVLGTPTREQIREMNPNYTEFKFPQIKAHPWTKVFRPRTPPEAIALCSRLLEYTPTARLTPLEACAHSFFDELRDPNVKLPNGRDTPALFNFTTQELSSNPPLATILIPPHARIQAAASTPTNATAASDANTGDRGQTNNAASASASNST
methodSummary: Inhibition of human recombinant GSK3beta assessed as inhibition of [gamma32P]ATP after 1 hr by liquid scintillation counting in presence of prephosphorylated GS1 peptide
pIC50: −log10 of the molar value.
Binary classification by pIC50, with 8 as an inclusive lower bound for true (1); all other cases are false (0).

{"columns": ["compound", "category"],
 "data": [
  ["CC[C@H]1COCCN1c1nc(-c2ccncc2F)cc(=O)n1C", "false (0)"]
]}

Please tell me: is the compound CC[C@@H]1COCCN1c1nc(-c2ccncc2F)cc(=O)n1C at or over 8 in terms of pIC50?
false (0)

Please tell me: is the compound Cn1c(N2CCO[C@H]3CCC[C@@H]32)nc(-c2ccncc2F)cc1=O at or over 8 in terms of pIC50?
false (0)

Please tell me: is the compound Cn1c(N2CCOCC2)nc(-c2ccncc2F)cc1=O at or over 8 in terms of pIC50?
false (0)

Please tell me: is the compound Cn1c(N2CCO[C@@H]3CCC[C@H]32)nc(-c2ccncc2F)cc1=O at or over 8 in terms of pIC50?
true (1)

Please tell me: is the compound Cn1c(N2CCO[C@@H]3CCCC[C@H]32)nc(-c2ccncc2F)cc1=O at or over 8 in terms of pIC50?
true (1)

Please tell me: is the compound C[C@@H]1CO[C@@H](C)CN1c1nc(-c2ccncc2F)cc(=O)n1C at or over 8 in terms of pIC50?
false (0)

----------
testedOn: Glycogen synthase kinase-3 beta (Homo sapiens)
methodSummary: Inhibition of human recombinant GSK3beta assessed as inhibition of [gamma32P]ATP after 1 hr by liquid scintillation counting in presence of prephosphorylated GS1 peptide
endpointName: pIC50
Just the number, please; pIC50 means minus log10 of the concentration in mol/L.

Illustrative cases are given below, each with its answer.
{"columns": ["compound", "testedOn", "testResult"],
 "data": [
  ["C[C@@H]1COCCN1c1nc(-c2ccncc2F)cc(=O)n1C", "Glycogen synthase kinase-3 beta (Homo sapiens)", 8.15],
  ["CC(C)C1CN(c2nc(-c3ccncc3F)cc(=O)n2C)CCO1 (racemic)", "Glycogen synthase kinase-3 beta (Homo sapiens)", 7.77]
]}

# evaluate next
Field request: pIC50 | item: C[C@H]1COCCN1c1nc(-c2ccncc2F)cc(=O)n1C
7.64

----------
Measured pIC50, listed per entry for reference.
testedOn: Glycogen synthase kinase-3 beta (Homo sapiens)
methodSummary: Inhibition of human recombinant GSK3beta assessed as inhibition of [gamma32P]ATP after 1 hr by liquid scintillation counting in presence of prephosphorylated GS1 peptide
Just the number, please; pIC50 means minus log10 of the concentration in mol/L.

Illustrative cases are given below, each with its answer.
{"columns": ["compound", "pIC50"],
 "data": [
  ["CC(C)[C@@H]1COCCN1c1nc(-c2ccncc2F)cc(=O)n1C", 7.85],
  ["Cn1c(N2CCO[C@@H]3COC[C@H]32)nc(-c2ccncc2F)cc1=O", 8.51],
  ["C[C@@H]1[C@@H](C)OCCN1c1nc(-c2ccncc2F)cc(=O)n1C", 8.31]
]}

Field request: pIC50 | item: Cn1c(N2CCOC(C3CCC3)C2)nc(-c2ccncc2F)cc1=O (racemic)
7.92

Field request: pIC50 | item: C[C@@H]1OCCN(c2nc(-c3ccncc3F)cc(=O)n2C)[C@@H]1C (stereo in doubt; 13)
7.80

Field request: pIC50 | item: C[C@@H]1OCCN(c2nc(-c3ccncc3F)cc(=O)n2C)[C@H]1C
7.72

Field request: pIC50 | item: CCCCC1CN(c2nc(-c3ccncc3F)cc(=O)n2C)CCO1 (racemic)
7.92

Field request: pIC50 | item: C[C@@H]1OCCN(c2nc(-c3ccncc3F)cc(=O)n2C)[C@@H]1C (stereo in doubt; 14)
7.49

Field request: pIC50 | item: CC1N(c2nc(-c3ccncc3F)cc(=O)n2C)CCOC1(C)C (racemic)
8.01

Field request: pIC50 | item: C[C@@H]1CN(c2nc(-c3ccncc3F)cc(=O)n2C)[C@H](C)CO1
6.34
